Tested on: ES-2
Protocol: Antiproliferative activity against human ES2 cells assessed as inhibition of cell viability by MTT assay
Assay type: functional, cell-based
pIC50: −log10 of the molar value.
Property: pIC50

Give pIC50 for the following molecule: CN1CCN(c2ccc(Nc3nc(-n4nc(N)c5ccccc54)c4cc[nH]c4n3)cc2)CC1
< 5.52
